Provenance of the data: the supplement of paper PMC10307832

# Test system: NCI-H727
# assay_info: relative viability (nuclei count vs DMSO), 5 days (fraction); higher = more cells survive
# study_conditions: first compound 0.8 µM
Record form. Attribute: relative viability. Fill in for each entry.
Field format: numeric only.

Item: Cc1cnc(-c2cnc(NCCNc3ccc(C#N)cn3)nc2-c2ccc(Cl)cc2Cl)[nH]1 + NC(=O)Nc1cc(-c2cccc(F)c2)sc1C(=O)N[C@H]1CCCNC1 [AZD7762] (partner 0.2 µM) | relative viability: 0.574

// relative viability lookup, compound = Cc1cnc(-c2cnc(NCCNc3ccc(C#N)cn3)nc2-c2ccc(Cl)cc2Cl)[nH]1 + Nc1ncn([C@H]2C[C@H](O)[C@@H](CO)O2)c(=O)n1 [Decitabine] (partner 2 µM) , result: 0.838

Consider O=c1[nH]c2ccccc2n1C1CCN(CCCC(c2ccc(F)cc2)c2ccc(F)cc2)CC1 [Pimozide] + Cc1cc(Nc2cc(N3CCN(C)CC3)nc(Sc3ccc(NC(=O)C4CC4)cc3)n2)n[nH]1 [Tozasertib] (partner 0.1 µM) . Its measured relative viability is 0.509
